Source listed as PubChem BioAssay (NCI).

Tested on: SN12C renal
Experiment: NCI-60 one-dose screen, 48 h
Conditions: 10 µM unless noted
Procedure: Growth inhibition of the SN12C human tumor cell line is measured as a screen for anti-cancer activity. Cells are grown in 96 well plates and exposed to the test compound for 48 hours. Compounds are tested at a single concentration, which is 10^-5 M for most compounds. The reported endpoint is percent growth (GI% or GIPRCNT), where numbers from 0 - 100% represent growth inhibition, and numbers from -100% - 0 represent cell death. For example, a value of 40 represents 60% growth inhibition. […]
About 83,000 compounds went through this panel and 20% of them were active in at least one assay; those are over-represented in the sample as a whole. The source made the active and inactive calls. How the source made its calls: active means growth percent below 10; inactive means the rest.
The reply should name one outcome from TRUE (active), FALSE (inactive)

Past entries and their recorded results:
compound | class
Cc1ccc2oc(=O)cc(-c3sc(N4CCCCC4)nc3-c3ccccc3)c2c1 | FALSE
C/C(=N\Nc1cc(C)c2ccccc2n1)c1ccccn1 | FALSE
Cc1cc2nc3c4cc(Cl)ccc4n(CCN(C)C)c3nc2cc1C | FALSE
c1ccc(CN2C(c3ccccc3)=Nc3ccccc3C2c2c[nH]c3ccccc23)cc1 (centres undefined) | FALSE
O=C1c2ccccc2NC(c2cn(-c3ccccc3)nc2-c2cccnc2)N1Cc1ccccc1 (centres undefined) | FALSE
Cc1ccc(Sc2sc(-c3ccccc3)nc2[P+](c2ccccc2)(c2ccccc2)c2ccccc2)cc1 | TRUE
O=S(=O)(NCCNc1cc(-c2cn(-c3ccccc3)nc2-c2cccc(O)c2)ccn1)c1ccc(F)cc1 | FALSE
C=C(C)[C@@H]1CC[C@]2(c3nnc(-c4ccncc4)o3)CC[C@]3(C)[C@H](CC[C@@H]4[C@@]5(C)CCC(=O)NC(C)(C)[C@@H]5CC[C@]43C)[C@@H]12 | FALSE

Turning now to a further record.
For this compound, state the assay outcome: Cc1cc(N(CCCNc2ccnc3cc(Cl)ccc23)Cc2ccco2)nc(Cl)n1
FALSE

###

System: OVCAR-4 ovarian
Experiment: NCI-60 one-dose screen, 48 h
Conditions: 10 µM unless noted
This is part of a sample that, as a whole, favours compounds with a hit. Of some 83,000 tested, about 20% had one in any assay. The source made the active and inactive calls. How the source made its calls: active means growth percent below 10; inactive means the rest.
The reply should name one outcome from active, inactive

Past entries and their recorded results:
compound | class
COc1cc2nc(Cl)nc(Nc3cccc(C(=O)/C=C/c4ccc(Br)cc4)c3)c2cc1OC | inactive
Cc1ccc2c(c1)c1nc3cc(C)c(C)cc3nc1n2CCN(C)C | inactive
C=C(C)[C@@H]1CC[C@]2(C(=O)OC)CC[C@]3(C)[C@H](CC[C@@H]4[C@@](C)(CC/C(N)=N/O)[C@H](C(=C)C)CC[C@]43C)[C@@H]12 | inactive
Cc1ccc(-c2nc3ccc(Cl)cc3c(=O)n2N2C(=O)CSC2c2ccccc2Cl)cc1 (stereo not given) | inactive
NC(=O)[C@@H]1CC2CCC1C2 (stereo not given in full) | inactive

Turning now to a further record.
For this compound, state the assay outcome: O=C(Nc1ccc(/C=C2\SC(=O)N(Cc3ccc(OC(F)(F)F)cc3)C2=O)cc1)c1ccc(Cl)c([N+](=O)[O-])c1
inactive

###

System: NCI/ADR-RES ovarian
Assay: NCI-60 one-dose screen, 48 h
Conditions: 10 µM unless noted
Procedure: Growth inhibition of the NCI/ADR-RES human […] tumor cell line is measured as a screen for anti-cancer activity. Cells are grown in 96 well plates and exposed to the test compound for 48 hours. Compounds are tested at a single concentration, which is 10^-5 M for most compounds. The reported endpoint is percent growth (GI% or GIPRCNT), where numbers from 0 - 100% represent growth inhibition, and numbers from -100% - 0 represent cell death. For example, a value of 40 represents 60% growth inhibition. […]
The panel holds about 83,000 compounds, 20% with a hit somewhere; the sample as a whole holds those more often. Activity calls are given as the source filed them. How the source made its calls: active means growth percent below 10; inactive means the rest.
The reply should name one outcome from active, inactive

For this molecule, state the assay outcome: CCN1CCN(C(=O)[C@]23CCC(C)(C)C[C@@H]2C2=CC[C@@H]4[C@@]5(C)C/C(=C/c6cccnc6)C(=O)C(C)(C)[C@@H]5CC[C@@]4(C)[C@]2(C)CC3)CC1
active

For this molecule, state the assay outcome: N#C/C(=C\c1ccc(-c2cccc(C(F)(F)F)c2)o1)c1nc(-c2ccco2)cs1
inactive

For this molecule, state the assay outcome: O=C(O)c1cccc2c1C(=O)N(c1ccc3c(c1)Cc1ccccc1-3)C2=O
inactive

For this molecule, state the assay outcome: C[C@@H](Oc1ccc(C(=O)NS(=O)(=O)C(C)(C)C)cc1C(F)(F)F)c1ccc(Oc2ccccc2)cn1
inactive
